Value source: paper PMC5997322

methodNotes: Ex vivo biodistribution (gamma-counting)
Assay type: in vivo, mice
details: male, athymic nu/nu, mouse, tumor (UM-SCC-22B xenograft), iv, 3.7 MBq, total radioactivity; 30 min after injection, absence of unlabeled peptide, mean ± SD, n = 4; read-out: tumor uptake (tissue sampling, gamma-counting)
Residues, ends and D or L forms follow the SMILES beside them. *: point of attachment. Propanoyl(2-F) = CC(F)C(=O)*
reportedEndpoint: tissue uptake at 0.5 h (%ID/g)
Reply with just the number (in %ID/g).

Param item = CC(C)C[C@H](NC(=O)[C@@H](N)Cc1ccc(O)cc1)C(=O)N[C@@H](Cc1ccccc1)C(=O)N[C@@H](CO)C(=O)N[C@H](C(=O)N[C@@H](Cc1c[nH]cn1)C(=O)N[C@@H](Cc1c[nH]c2ccccc12)C(=O)N1CCC[C@H]1C(=O)N1CCC[C@H]1C(=O)N[C@@H](CC(C)C)C(=O)N[C@@H](CCCCNC(=O)C(C)F)C(=O)N[C@@H](C)C(=O)O)C(C)C (stereo partly shown) [[^18F]FP-Met-pep1] (H-YLFSVHWPPLK(Propanoyl(2-F))A-OH) ; retrieve measured tissue uptake at 0.5 h. 4.58

###

methodNotes: MicroPET imaging, ROI quantification
Format: in vivo, mice
details: male, athymic nu/nu, mouse, tumor (UM-SCC-22B xenograft), iv, total radioactivity; UM-SCC-22B tumor, 60 min post injection, 3.7 MBq i.v., mean ± SD, n = 4
Residues, ends and D or L forms follow the SMILES beside them. *: point of attachment. Propanoyl(2-F) = CC(F)C(=O)*
reportedEndpoint: tissue uptake at 1 h (%ID/g)
Reply with just the number (in %ID/g).

Param item = CC(C)C[C@H](NC(=O)[C@@H](N)Cc1ccc(O)cc1)C(=O)N[C@@H](Cc1ccccc1)C(=O)N[C@@H](CO)C(=O)N[C@H](C(=O)N[C@@H](Cc1c[nH]cn1)C(=O)N[C@@H](Cc1c[nH]c2ccccc12)C(=O)N1CCC[C@H]1C(=O)N1CCC[C@H]1C(=O)N[C@@H](CC(C)C)C(=O)N[C@@H](CCCCNC(=O)C(C)F)C(=O)N[C@@H](C)C(=O)O)C(C)C (stereo partly shown) [[^18F]FP-Met-pep1] (H-YLFSVHWPPLK(Propanoyl(2-F))A-OH) ; retrieve measured tissue uptake at 1 h. 3.83

###

methodNotes: MicroPET imaging, ROI quantification
Type: in vivo, mice
details: male, athymic nu/nu, mouse, tumor (UM-SCC-22B xenograft), iv, total radioactivity; UM-SCC-22B tumor, 30 min post injection, 3.7 MBq i.v., mean ± SD, n = 4; read-out: tumor uptake (microPET)
Residues, ends and D or L forms follow the SMILES beside them. *: point of attachment. Propanoyl(2-F) = CC(F)C(=O)*
reportedEndpoint: tissue uptake at 0.5 h
I'd appreciate it if you included the unit after the number.

Param item = CC(C)C[C@H](NC(=O)[C@@H](N)Cc1ccc(O)cc1)C(=O)N[C@@H](Cc1ccccc1)C(=O)N[C@@H](CO)C(=O)N[C@H](C(=O)N[C@@H](Cc1c[nH]cn1)C(=O)N[C@@H](Cc1c[nH]c2ccccc12)C(=O)N1CCC[C@H]1C(=O)N1CCC[C@H]1C(=O)N[C@@H](CC(C)C)C(=O)N[C@@H](CCCCNC(=O)C(C)F)C(=O)N[C@@H](C)C(=O)O)C(C)C (stereo partly shown) [[^18F]FP-Met-pep1] (H-YLFSVHWPPLK(Propanoyl(2-F))A-OH) ; retrieve measured tissue uptake at 0.5 h. 4.72 %ID/g
